Measured % Amnesia Reversal Rats accompanies every entry in the list below.
Test system: amnesia produced by electroconvulsive shock
Test: reversal of electroconvulsive shock-induced amnesia, rats
Type: in vivo
Conditions: dose 0.010 mg/kg IM
Property: % Amnesia Reversal Rats

1) CC(C)C[C@H](NC[C@@H]1CCCN1C(=O)OCc1ccccc1)C(=O)NCC(N)=O (relative stereo) [ZPro[CH2 NH]LeuGlyNH2]	0%
2) CC(C)C[C@@H](CNCC(N)=O)NC(=O)[C@@H]1CCCN1C(=O)OCc1ccccc1.Cl (relative stereo) [ZProLeu[CH2 NH]GlyNH2]	43%
3) CC(C)CC(CSCC(=O)O)NC(=O)C1CCCN1C(=O)OCc1ccccc1 (stereo not shown) [ZProLeu[CH2 S]Gly]	57%
4) CC(C)C[C@@H](CSCC(=O)O)NC(=O)[C@@H]1CCC(=O)N1C(=O)OCc1ccccc1 (relative stereo) [Z3-KetoProLeu[CH2 S]Gly]	0%
5) NC(=O)COCC(Cc1ccccc1)NC(=O)[C@@H]1CCCN1C(=O)OCc1ccccc1 (stereo partly shown) [ZProPhe[CH2 O]GlyNH2]	0%
6) Cc1ccc(S(=O)(=O)N2CCCC2CN[C@@H](CC(C)C)C(=O)NCC(N)=O)cc1 (stereo partly shown) [TosPro[CH2 NH]DLeuGlyNH2]	0%
7) CC(C)CC(CSCC(=O)O)NC(=O)C1CC(=O)CN1C(=O)OCc1ccccc1 (stereo not shown) [Z4-Keto ProLeu[CH2 S]Gly]	50%
